# target.or.system: human TOR (Homo sapiens, UniProt P42345)
# Construct: FLAG
# experimental.details: mTOR enzyme assay (DELFIA, His6-S6K substrate)
# Assay type: biochemical
# particulars: read-out: mTOR Kinase Avg. IC50
recorded.endpoint: IC50

> print(dat)
                            compound.string  measurement
1  COc1ccc2c(c1)c(C=C1Oc3cc(O)cc(O)c3C1=O)c(C)n2CCN1CCN(C)CC1      < 34 nM
2  COc1cccc2c(C=C3Oc4cc(O)cc(O)c4C3=O)cn(C)c12   > 20000 nM

Read the next record carefully.
Query: Requested read-out: IC50. Entry: COc1ccc2c(c1)c(C=C1Oc3cc(O)cc(O)c3C1=O)c(C)n2CCCCN1CCN(C)CC1
Reply: < 31 nM

* * *

The following compounds are shown together with reported IC50 values.
# target.or.system: PI3K-alpha (Homo sapiens)
# experimental.details: PI3K-alpha fluorescence polarization assay
# Format: biochemical
# particulars: read-out: PI3Kα Avg. IC50
Give the value, in units of nM, as a plain number.

> print(dat)
                                   compound  measurement
1  COc1ccc2c(c1)c(/C=C1\Oc3cc(O)cc(O)c3C1=O)c(C(=O)N(C)C)n2CCN1CCC(O)C1 (stereo not shown)          8.5
2  COc1ccc2c(c1)c(/C=C1\Oc3cc(O)cc(O)c3C1=O)cn2CCN1CCC(O)CC1         38.3
3  CNC(=O)Nc1ccc2c(c1)C(=O)/C(=C/c1c(-c3nc(C4CC4)no3)n(CCN3CCN(C)CC3)c3ccc(OC)cc13)O2            3
4  Cc1c(C=C2Oc3cc(O)cc(O)c3C2=O)c2cc(Cl)ccc2n1C         2040
5  COc1ccc2[nH]cc(C=C3Oc4cc(O)cc(O)c4C3=O)c2c1C         1000
6  COc1ccc2c(c1)c(/C=C1\Oc3cc(O)cc(O)c3C1=O)c(C(=O)N1CCCC1)n2CCN1CCN(C)CC1          7.5
7  CNC(=O)Nc1ccc2c(c1)C(=O)/C(=C/c1cn(CCCN3CCOCC3)c3ccc(OC)cc13)O2           53
8  O=C1/C(=C/c2c(-c3ccc(Cl)cc3)[nH]c3ccccc23)Oc2cc(O)ccc21         3810

Query: Provide the documented IC50 with PI3K-alpha (Homo sapiens) as the system for Cc1c(C=C2Oc3cc(O)cc(O)c3C2=O)c2ccccc2n1CCCC#N
Reply: 3330

Query: Likewise for COc1ccc2c(c1)c(/C=C1\Oc3cc(O)cc(O)c3C1=O)c(C)n2CCN1CCC(O)CC1 ?
Reply: 3

Query: Likewise for Cn1c(-c2ccc(OCc3ccccc3)cc2)c(C=C2Oc3cc(O)cc(O)c3C2=O)c2ccccc21 ?
Reply: 1670

Query: Likewise for CCn1c(C)c(/C=C2\Oc3ccc(NC(=O)Nc4ccc(CN(C)C)cc4)cc3C2=O)c2cc(OC)ccc21 ?
Reply: 3.1

Query: Likewise for COc1ccc2c(c1)c(C=C1Oc3c(ccc(O)c3O)C1=O)c(C)n2C ?
Reply: 202

Query: Likewise for Cn1cc(/C=C2\Oc3cc(O)cc(O)c3C2=O)c2c(-c3ccc(N)cc3)cccc21 ?
Reply: 1070

Query: Likewise for COc1cc2c(C=C3Oc4cc(O)cc(O)c4C3=O)c(C)n(C)c2cc1C ?
Reply: 32.3

Query: Likewise for COc1ccc2c(c1)c(C=C1Oc3cc(O)cc(O)c3C1=O)c(C)n2CCCCN1CCN(CCN2CCOCC2)CC1 ?
Reply: 12

Query: Likewise for COc1ccc2c(c1)c(/C=C1\Oc3cc(O)ccc3C1=O)c(C1CC1)n2CCCN(C)C ?
Reply: 21.5

Query: Likewise for Cn1cc(/C=C2\Oc3ccc(Br)cc3C2=O)c2c(-c3ccccc3)cccc21 ?
Reply: 2990

Query: Likewise for COc1ccc2c(c1)c(/C=C1\Oc3ccc(NC(=O)Nc4ccc(C(=O)N5CCN(C)CC5)cc4)cc3C1=O)c(C)n2C ?
Reply: 0.3

Query: Likewise for CCn1c(C)c(/C=C2\Oc3ccc(NC(=O)Nc4ccc(OCCN(C)C)cc4)cc3C2=O)c2cc(OC)ccc21 ?
Reply: 1.87

Query: Likewise for COc1ccc2c(c1)c(/C=C1\Oc3cc(O)ccc3C1=O)c(C)n2CCN1CCCCC1 ?
Reply: 32

* * *

# target.or.system: PI3K-alpha (Homo sapiens, UniProt P42336)
# Sequence (P42336 whole entry, species assumed): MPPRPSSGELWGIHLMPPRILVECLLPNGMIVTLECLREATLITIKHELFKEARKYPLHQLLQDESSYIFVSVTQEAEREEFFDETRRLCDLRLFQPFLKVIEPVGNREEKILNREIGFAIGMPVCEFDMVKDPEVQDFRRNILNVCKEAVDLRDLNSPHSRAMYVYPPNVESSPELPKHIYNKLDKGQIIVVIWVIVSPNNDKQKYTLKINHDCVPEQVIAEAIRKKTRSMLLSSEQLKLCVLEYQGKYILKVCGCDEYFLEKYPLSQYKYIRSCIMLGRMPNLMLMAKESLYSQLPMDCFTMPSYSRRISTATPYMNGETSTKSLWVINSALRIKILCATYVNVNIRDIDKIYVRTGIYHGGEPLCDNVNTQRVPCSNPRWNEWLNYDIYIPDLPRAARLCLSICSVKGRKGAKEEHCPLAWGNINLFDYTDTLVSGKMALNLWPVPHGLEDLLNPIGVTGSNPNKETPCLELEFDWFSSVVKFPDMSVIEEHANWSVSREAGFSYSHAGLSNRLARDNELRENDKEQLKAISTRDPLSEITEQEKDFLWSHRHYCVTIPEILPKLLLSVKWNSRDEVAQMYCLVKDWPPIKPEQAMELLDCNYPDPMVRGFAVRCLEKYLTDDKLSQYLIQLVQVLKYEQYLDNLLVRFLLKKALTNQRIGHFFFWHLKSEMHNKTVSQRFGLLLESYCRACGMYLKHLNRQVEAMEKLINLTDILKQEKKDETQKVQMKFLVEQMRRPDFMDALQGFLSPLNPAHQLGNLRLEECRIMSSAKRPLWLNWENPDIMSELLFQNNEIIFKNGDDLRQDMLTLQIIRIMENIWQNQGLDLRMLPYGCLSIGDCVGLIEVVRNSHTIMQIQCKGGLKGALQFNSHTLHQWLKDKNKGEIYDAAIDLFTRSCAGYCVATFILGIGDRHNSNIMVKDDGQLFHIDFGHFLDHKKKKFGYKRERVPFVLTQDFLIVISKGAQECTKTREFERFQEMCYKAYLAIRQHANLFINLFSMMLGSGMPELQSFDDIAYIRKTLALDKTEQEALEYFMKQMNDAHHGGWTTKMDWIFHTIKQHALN
# Sequence (P27986 whole entry partner, species assumed): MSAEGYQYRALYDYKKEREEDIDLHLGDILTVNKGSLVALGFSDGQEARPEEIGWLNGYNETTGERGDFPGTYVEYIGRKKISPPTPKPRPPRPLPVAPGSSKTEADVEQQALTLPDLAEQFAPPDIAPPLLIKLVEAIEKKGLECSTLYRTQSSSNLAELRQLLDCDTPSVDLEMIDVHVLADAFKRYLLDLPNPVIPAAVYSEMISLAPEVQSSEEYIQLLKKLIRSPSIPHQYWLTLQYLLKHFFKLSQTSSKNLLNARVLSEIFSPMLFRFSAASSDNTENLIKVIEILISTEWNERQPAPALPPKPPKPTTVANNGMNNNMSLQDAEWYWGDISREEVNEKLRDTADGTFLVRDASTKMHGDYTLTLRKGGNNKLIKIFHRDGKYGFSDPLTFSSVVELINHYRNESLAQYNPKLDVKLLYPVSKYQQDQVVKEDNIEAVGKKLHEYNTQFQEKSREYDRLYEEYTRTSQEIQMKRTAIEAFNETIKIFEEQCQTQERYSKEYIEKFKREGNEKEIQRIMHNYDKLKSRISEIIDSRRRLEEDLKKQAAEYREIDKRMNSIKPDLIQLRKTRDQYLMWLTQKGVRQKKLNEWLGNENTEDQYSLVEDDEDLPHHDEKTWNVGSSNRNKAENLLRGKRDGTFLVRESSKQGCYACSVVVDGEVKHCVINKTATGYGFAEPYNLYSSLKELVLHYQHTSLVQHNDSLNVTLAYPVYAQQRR
# experimental.details: PI3K-alpha fluorescence polarization assay
# Assay type: biochemical
# particulars: read-out: PI3Kα Avg. IC50
Classify on IC50 using low band: < 4 nM; middle band: ≥ 4 nM and < 700 nM; high band: ≥ 700 nM

Reference set, count: 10
> print(dat)
                                    compound                          target.or.system   class.name
 1  Cn1cc(/C=C2\Oc3c(Br)ccc(O)c3C2=O)c2c(-c3ccccc3)cccc21  PI3K-alpha (Homo sapiens, UniProt P42336)    high band
 2  COc1ccc2c(c1)c(C=C1Oc3cc(O)cc(O)c3C1=O)c(C)n2CCCN(C)C  PI3K-alpha (Homo sapiens, UniProt P42336)  middle band
 3  Cn1cc(/C=C2\Oc3cc(O)cc(O)c3C2=O)c2c(-c3cccc(O)c3)cccc21  PI3K-alpha (Homo sapiens, UniProt P42336)    high band
 4  CNC(=O)Nc1ccc2c(c1)C(=O)/C(=C/c1c(-c3c(C)nn(C)c3C)[nH]c3ccc(OC)cc13)O2 [Compound 616]  PI3K-alpha (Homo sapiens, UniProt P42336)     low band
 5  O=C1/C(=C/c2c[nH]c3cccc(-c4ccc(F)cc4)c23)Oc2cc(O)cc(O)c21  PI3K-alpha (Homo sapiens, UniProt P42336)    high band
 6  CNC(=O)Nc1ccc2c(c1)C(=O)/C(=C/c1c[nH]c3c(/C=C/CN4CCN(C)CC4)cc(OC)cc13)O2  PI3K-alpha (Homo sapiens, UniProt P42336)  middle band
 7  CCn1c(C2CCCCC2)c(/C=C2\Oc3ccc(NC(=O)Nc4ccc(C(=O)N5CCN(C)CC5)cc4)cc3C2=O)c2cc(OC)ccc21  PI3K-alpha (Homo sapiens, UniProt P42336)     low band
 8  Cn1cc(/C=C2\Oc3cc(O)cc(O)c3C2=O)c2c(-c3ccc(-c4ccc(CN)cc4)cc3)cccc21  PI3K-alpha (Homo sapiens, UniProt P42336)    high band
 9  CNCCNC(=O)c1ccc(NC(=O)Nc2ccc3c(c2)C(=O)/C(=C/c2c(C4CCCCC4)[nH]c4ccc(OC)cc24)O3)cc1  PI3K-alpha (Homo sapiens, UniProt P42336)     low band
10  COC(=O)NC(=O)Nc1ccc2c(c1)C(=O)/C(=C/c1c[nH]c3ccc(OC)cc13)O2  PI3K-alpha (Homo sapiens, UniProt P42336)  middle band

Query: Class label required: COc1ccc2c(c1)c(/C=C1\Oc3cc(O)cc(O)c3C1=O)c(C1CCC1)n2CCN1CCN(C)CC1
Reply: low band

Query: Likewise for COc1ccc2c(c1)c(/C=C1\Oc3cc(O)ccc3C1=O)c(C)n2CCCN1CCCCCC1 ?
Reply: middle band

Query: Likewise for CN(C)Cc1ccc(-c2ccc(-c3cccc4c3c(/C=C3\Oc5cc(O)cc(O)c5C3=O)cn4C)cc2)cc1 ?
Reply: high band

Query: Likewise for COc1ccc2c(c1)c(/C=C1\Oc3ccc(NC(=O)Nc4ccc(C(=O)N5CCOCC5)cc4)cc3C1=O)c(C)n2CCN1CCN(C)CC1 ?
Reply: low band

Query: Likewise for COc1ccc2c(c1)c(/C=C1\Oc3cc(O)cc(O)c3C1=O)c(C1CC1)n2CCN1CCC(O)C1 (stereo not drawn) ?
Reply: middle band

* * *

The following molecules are shown together with reported pIC50 values.
# target.or.system: PI3K-gamma (Homo sapiens)
# Sequence (P48736 whole entry, species assumed): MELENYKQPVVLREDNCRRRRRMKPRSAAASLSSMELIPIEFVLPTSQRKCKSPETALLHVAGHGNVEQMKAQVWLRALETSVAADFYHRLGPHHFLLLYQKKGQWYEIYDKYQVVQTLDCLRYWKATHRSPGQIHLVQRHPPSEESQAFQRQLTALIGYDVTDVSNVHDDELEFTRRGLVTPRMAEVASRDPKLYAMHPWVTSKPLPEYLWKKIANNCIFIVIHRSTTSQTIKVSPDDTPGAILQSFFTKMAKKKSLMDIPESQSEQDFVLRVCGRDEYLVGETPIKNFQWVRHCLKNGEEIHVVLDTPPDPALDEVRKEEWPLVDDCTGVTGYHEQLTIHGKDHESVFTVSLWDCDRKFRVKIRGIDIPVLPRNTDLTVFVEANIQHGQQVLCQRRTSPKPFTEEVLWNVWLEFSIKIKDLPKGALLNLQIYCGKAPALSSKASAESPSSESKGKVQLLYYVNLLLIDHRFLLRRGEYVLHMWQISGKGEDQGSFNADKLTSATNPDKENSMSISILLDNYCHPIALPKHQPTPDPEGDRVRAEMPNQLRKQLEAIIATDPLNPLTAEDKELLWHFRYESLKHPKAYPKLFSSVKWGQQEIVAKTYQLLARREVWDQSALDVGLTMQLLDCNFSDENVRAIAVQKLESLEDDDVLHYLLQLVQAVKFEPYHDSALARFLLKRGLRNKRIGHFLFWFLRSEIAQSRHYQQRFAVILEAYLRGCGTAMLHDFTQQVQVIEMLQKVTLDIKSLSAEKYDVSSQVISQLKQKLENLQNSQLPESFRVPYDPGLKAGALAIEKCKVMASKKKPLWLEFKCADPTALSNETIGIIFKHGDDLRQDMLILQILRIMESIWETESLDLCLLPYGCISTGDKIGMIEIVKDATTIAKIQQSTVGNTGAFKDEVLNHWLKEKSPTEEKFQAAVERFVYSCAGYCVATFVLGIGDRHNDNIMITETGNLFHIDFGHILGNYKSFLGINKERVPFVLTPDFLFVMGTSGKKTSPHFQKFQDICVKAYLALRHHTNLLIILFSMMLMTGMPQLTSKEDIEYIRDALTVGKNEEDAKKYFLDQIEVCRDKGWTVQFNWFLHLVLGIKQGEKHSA
# experimental.details: PI3K-gamma fluorescence polarization assay
# Assay type: biochemical
# particulars: PI3Kγ Avg. IC50
# Method: PI3K-Alpha, PI3K-Beta, PI3K-Gamma, and PI3K-delta Fluorescence Polarization Assay Protocols PI3-Kinase reactions were performed in 5 mM HEPES, pH 7, 2.5 mM MgCl2, and 25 μM ATP, with diC8-PI(4,5)P2 (Echelon, Salt Lake City Utah) as substrate. Nunc 384-well black polypropylene fluorescent plates were used for PI3K assays. […] Assay Plates were read on Perkin-Elmer Envision plate readers with appropriate filters for Tamra [BODIPY-TMRI(1,3,4,5)P4]. […]
pIC50: −log10 of the molar value.

> print(dat)
                            compound.string  measurement
1  COc1ccc2c(c1)c(/C=C1\Oc3cc(CO)ccc3C1=O)cn2CCCN(C)C       < 5.00
2  COc1ccc2c(c1)c(/C=C1\Oc3ccc(NC(=O)NCCCCN)cc3C1=O)cn2CCN1CCN(C)CC1       < 5.00

Query: Provide the documented pIC50 with PI3K-gamma (Homo sapiens) as the system for Cn1cc(/C=C2\Oc3cc(O)cc(O)c3C2=O)c2c(-c3ccc([N+](=O)[O-])cc3)cccc21
Reply: < 5.00

Source: patent US20090311217A1
